# melting point listing for each entry below

Some entries whose results are on file:
Cc1nc(N2CCN(CC3CC3)C2=O)sc1C(=O)NCc1ccccn1: 148 to 151 °C
COC(=O)c1cnc(N2CCN(CC3CC3)C2=O)s1: 124 to 126 °C
Cc1nc(N2CCN(Cc3ccc(F)cc3)C2=O)sc1C(=O)N(C)C: 162 to 164 °C
COC(=O)c1cccc(CN2CCN(c3nc(C)c(C(=O)NCc4ccccc4)s3)C2=O)c1: 49 to 51 °C
Cc1nc(-n2cnn(Cc3ccc(F)cc3)c2=O)sc1C(=O)NCc1ncco1: 152 to 153 °C
Cc1nc(N2CCN(Cc3ccccc3)C2=O)sc1C(=O)NCc1ccncc1: 96 to 97 °C
Cc1nc(N2CCN(Cc3cccc4cccnc34)C2=O)sc1C(=O)NCc1cccnc1: 225 to 228 °C
Cc1nc(N2CCN(Cc3ccccc3C(=O)O)C2=O)sc1C(=O)NCc1ccccc1: 153 to 156 °C
Cc1nc(N2CCN(Cc3ccc(C(F)F)o3)C2=O)sc1C(=O)NCc1cccnc1: 142 to 143 °C
Cc1nc(N2CCN(CCCc3ccccc3)C2=O)sc1C(=O)NCc1cccnc1: 127 to 128 °C

Dear colleague, please send me the reported melting point for `Cc1nc(N2CCN(Cc3ccccc3C(F)(F)F)C2=O)sc1C(=O)NCc1ccccc1` when you can. 138 to 140 °C

Please give measured melting point of the following entry: Cc1nc(N2C(=O)N(CCc3ccc(F)cc3)CC2O)sc1C(=O)NCc1cccnc1 (centres unmarked) 182 to 184 °C

Read off the recorded melting point for `Cc1cnc(CNC(=O)c2sc(N3CCN(Cc4ccc(F)cc4)C3=O)nc2C)cn1` 191 to 193 °C

Answer with the recorded melting point for the molecule listed here: `Cc1nc(N2CCN(Cc3ccc(C(F)(F)F)cc3)C2=O)sc1Br` 107 to 108 °C

For the molecule `Cc1cc(-n2cnn(Cc3ccc(C(F)(F)F)cc3)c2=O)sc1C(=O)NCc1cccnc1` , report melting point. 176 to 178 °C

====

outcome measure: melting point

Reference set (4 entries):
Cc1nc(N2CCN(Cc3ccccc3)C2=O)sc1C(=O)NCc1ccc(F)cc1 [Example 9]: 147 to 148 °C
Cc1nc(N2CCN(Cc3ccc(F)cc3)C2=O)sc1C(=O)NCc1cnccn1 [Example 32.17]: 185 to 187 °C
Cc1nc(N2CCN(Cc3ccc4nonc4c3)C2=O)sc1C(=O)NCc1cccnc1 [Example 32.6]: 110 to 112 °C
Cc1nc(N2CCN(CCc3c[nH]c4ccccc34)C2=O)sc1C(=O)NCc1cccnc1 [Example 32.20]: 198 to 201 °C

Please give measured melting point of the following entry: Cc1nc(-n2cnn(Cc3ccc(F)cc3)c2=O)sc1C(=O)NCc1nccs1 [Example 21.12] 189 to 190 °C

====

log10 of IC50: recorded values
Target: stearoyl-CoA desaturase (SCD1) (Mus musculus, UniProt P13516)
Sequence (P13516 1-355): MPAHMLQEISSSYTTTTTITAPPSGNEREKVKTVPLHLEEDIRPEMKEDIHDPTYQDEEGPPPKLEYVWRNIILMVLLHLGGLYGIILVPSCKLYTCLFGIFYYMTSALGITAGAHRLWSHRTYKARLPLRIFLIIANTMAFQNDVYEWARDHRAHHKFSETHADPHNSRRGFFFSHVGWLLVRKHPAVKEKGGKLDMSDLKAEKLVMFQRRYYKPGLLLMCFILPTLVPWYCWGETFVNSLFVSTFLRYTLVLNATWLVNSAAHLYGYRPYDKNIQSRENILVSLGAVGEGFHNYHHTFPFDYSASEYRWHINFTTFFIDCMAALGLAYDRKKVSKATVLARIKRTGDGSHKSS
Quick note: numbers are log10 of IC50, with nM as the unit.

Below are worked cases with known answers.
Cc1nc(N2CCN(Cc3ccccn3)C2=O)sc1C(=O)NCc1cccnc1: 2.43
Cc1cc(N2CCN(Cc3ccc(F)cc3)C2=O)sc1C(=O)NC1Cc2ccccc2C1: 1.43
Cc1nc(N2CCN(Cc3ccc(C(F)(F)F)cc3)C2=O)sc1-c1ccno1: 3.09
CCN1CCN(c2nc(C)c(C(=O)NCc3cccnc3)s2)C1=O: 2.09
CCOC(=O)c1ccc(CN2CCN(c3nc(C)c(C(=O)NCc4ccccc4)s3)C2=O)cc1: 1.79

Now turn to the next compound.
Give log10 of IC50 for `Cc1nc(-n2ccn(Cc3ccc(C(F)(F)F)cc3)c2=O)sc1C(=O)NCc1cccnc1` 1.08

====

Entries and their melting point values follow.

These recorded examples may help you get a feel for the data.
Cc1nc(-n2cnn(CCOc3ccc(F)cc3)c2=O)sc1C(=O)NCc1cccnc1: 154 to 155 °C
Cc1nc(N2CCN(Cc3cccc(C(=O)O)c3)C2=O)sc1C(=O)NCc1ccccc1 [Example 25.3]: 143 to 145 °C
Cc1nc(N2CCN(Cc3ccc(F)cc3)C2=O)sc1C(=O)NCc1ccccc1: 192 to 193 °C

Consider the molecule `Cc1cc(-n2cnn(Cc3ccc(F)cc3)c2=O)sc1C(=O)NCc1cnn(C)c1` . State its measured melting point. 168 to 170 °C

Retrieve melting point measured for `Cc1nc(N2CCN(Cc3ccccc3)C2=O)sc1C(=O)NCc1cccc(Cl)c1` and print it. 178 to 179 °C

Output melting point of `Cc1nc(N2CCN(CCc3ccccc3)C2=O)sc1C(=O)NCc1ccccc1` 156 to 157 °C

Fill in melting point for record `Cc1nc(N2CCN(Cc3ccccn3)C2=O)sc1C(=O)NCc1cccnc1` 58 to 61 °C

Give melting point for `Cc1nc(N2CCN(C(=O)c3ccc(F)cc3)C2=O)sc1C(=O)NCc1ccccc1` 130 to 132 °C

Check the records and state melting point for `Cc1nc(N2CCN(Cc3ccccc3)C2=O)sc1C(=O)NCc1ccccc1F` 167 to 168 °C

Quote melting point reported for `Cc1nc(-n2cnn(CCOC(=O)NCc3ccc(F)cc3)c2=O)sc1C(=O)NCc1cccnc1` please. 149 to 150 °C

For `Cc1cc(N2CCN(Cc3ccc(C(=O)O)cc3)C2=O)sc1C(=O)NCc1cccnc1` , write its melting point. 120 °C (dec.)

====

melting point: recorded values

Give the measured melting point for Cc1nc(N2CCN(Cc3ccc(F)cc3)C2=O)sc1C(=O)NCc1ncccn1 [Example 32.16] 205 to 207 °C

Please look at this molecule and report its melting point: Cc1cnc(CNC(=O)c2sc(-n3cnn(Cc4ccc(F)cc4)c3=O)nc2C)cn1 [Example 21.15] 188 to 189 °C

Kindly indicate its recorded melting point. Item: Cc1nc(N2CCN(Cc3ccccc3)C2=N)sc1C(=O)NCc1ccccc1 [Example 27.3] 125 to 126 °C

Supply reported melting point belonging to this molecule: CCCN1CCN(c2nc(C)c(C(=O)NCc3cccnc3)s2)C1=O [Example 9.40] 109 to 111 °C

====

Catalogue of molecules with associated melting point

# count of solved cases: 3
Cc1nc(N2C(=O)N(Cc3ccc(F)cc3)CC2O)sc1C(=O)NCc1cccnc1 (centres unmarked) [Example 16.2]: 64 to 66 °C
Cc1csc(N2CCN(Cc3ccc(C(=O)O)cc3)C2=O)n1 [Example 6.23]: 222 to 224 °C
O=C(O)c1cnc(N2CCN(CC3CC3)C2=O)s1 [Example 25.1]: 250 to 252 °C

Report melting point, nothing else, for this molecule: Cc1noc(-c2sc(N3CCN(Cc4ccc(C(F)(F)F)cc4)C3=O)nc2C)n1 [Example 44] 163 to 164 °C

Give melting point for Cc1csc(NC(=O)c2ccc(CN3CCN(c4nc(C)cs4)C3=O)cc2)n1 [Example 8.10] 197 to 198 °C

Give melting point for Cc1nc(N2CCN(Cc3ccc(F)cc3)C2=O)sc1C(N)=O [Example 32.18] 201 to 203 °C

Give the reported value of melting point for this record: Cc1nc(N2CCN(Cc3ccc(F)cc3)C2=O)sc1C(=O)NCc1ccccn1 [Example 32.21] 183 to 185 °C

====

melting point overview

// worked examples, melting point included
COC(=O)c1ccc(CN2CCN(c3nc(C)cs3)C2=O)cc1: 157 to 158 °C
Cc1nc(N2C(=O)CN(c3ccc(F)cc3)C2=O)sc1C(=O)NCc1ccccc1: 217 to 219 °C

Tell us which melting point value is on record for `Cc1nc(N2CCN(CC3CCCCC3)C2=O)sc1C(=O)NCc1cccnc1` 134 to 136 °C

Complete the entry with melting point for `Cc1cc(-n2cnn(Cc3ccc(F)cc3)c2=O)sc1C(=O)NCc1cccnc1` 180 to 182 °C

Please indicate melting point recorded for `Cc1nc(N2CCN(Cc3ccccc3)C2=O)sc1C(=O)NCc1cccc(F)c1` 169 to 171 °C

====

outcome measure: melting point

These recorded examples may help you get a feel for the data.
Cc1nc(N2CCN(Cc3ccc(C#N)cc3)C2=O)sc1C(=O)NCc1ccccc1 [Example 23]: 176 to 178 °C
Cc1nc(-n2cn[nH]c2=O)sc1C(=O)NCc1cccnc1 [Example 21.7]: 278 to 279 °C
Cc1nc(N2CCN(CC3CCC3)C2=O)sc1C(=O)NCc1cccnc1 [Example 9.37]: 136 to 137 °C

Consider the molecule Cc1nc(N2CCN(Cc3ccccc3)C2=N)sc1C(=O)NCc1ccc(F)c(F)c1 [Example 27.5] and give its recorded melting point. 140 to 142 °C

Specify melting point for Cc1nc(-n2cnn(Cc3ccc(C(F)(F)F)o3)c2=O)sc1C(=O)NCc1cccnc1 [Example 21.6] and stop. 124 to 125 °C

State its melting point: Cc1cc(N2CCN(Cc3ccc(F)cc3)C2=O)sc1C(=O)NCc1nc2ccccc2[nH]1 [Example 55.4] 265 to 267 °C

Return melting point (reported value) for this molecule: CCOC(=O)c1ccc(CN2CCN(c3nc(C)c(C(=O)NCc4ccccc4)s3)C2=O)cc1 [Example 23.2] 118 to 120 °C

Name the recorded melting point of the molecule listed here: Cc1cc(-c2sc(N3CCN(Cc4ccc(C(=O)N5CCCCC5)cc4)C3=O)nc2C)n[nH]1 [Example 40] 182 to 183 °C
